Data origin: PubChem BioAssay (NCI)

- Test system: HL-60(TB) leukemia
- assay-method-text: NCI tumour cell line growth inhibition, 48 h; in the data active means GI50 below about 0.43 µM; inactive means the rest
Choose the fitting class; nothing outside class 1 (active), class 0 (inactive) is accepted.

Nc1nc(Cl)nc2c1ncn2C1OC(CO)C(O)C1F (stereo not given)
class 1
O=C1C(N2CCN(CCOCCO)CC2)=C(Cl)C(=O)c2ncccc21
class 0
CCN1CCN(c2cc(C(=O)Nc3cccc(Nc4ccc5c(OC)cccc5n4)c3)cc(C(F)(F)F)c2)CC1
class 0
Cc1ccc2oc(=O)c3c(O)c4cccc(OC5OC(C)C6O[C@@H](c7ccccc7)OC6C5OC5OC(C)C(O)C(O)C5O)c4c4oc(=O)c1c2c34 (stereo not given in full)
class 1

Recorded test outcome, item CN1CCN(Cc2ccc(NC(=O)c3[nH]ncc3Nc3ncnc4[nH]ccc34)cc2)CC1 class 1
